compounds and their reported pIC50
TEST SYSTEM: MDMX (Homo sapiens)
Sequence (O15151 1-125): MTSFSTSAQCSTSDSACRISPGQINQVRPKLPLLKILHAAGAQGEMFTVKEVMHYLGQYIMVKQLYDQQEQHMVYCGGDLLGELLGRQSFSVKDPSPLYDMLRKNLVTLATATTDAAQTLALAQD
TEST: Competitive fluorescence polarization assay for MDMX
Type: binding
MEASUREMENT CONTEXT: competitive FP assay, read-out: IC50 (MDMX)
pIC50: −log10 of the molar value. Where a SMILES comes first, the peptide text is derived from it. Bridges are numbered along the chain shown (N, C = ends). [ ]: non-standard residue; d: D form. The star is where a group is joined. Palmitoyl = CCCCCCCCCCCCCCCC(=O)*; R8 = C=CCCCCCC[C@@](C)(N)C(=O)O; Cha = N[C@@H](CC1CCCCC1)C(=O)O; Cba = N[C@@H](CC1CCC1)C(=O)O; S5 = C=CCCC[C@](C)(N)C(=O)O; Nle = CCCC[C@H](N)C(=O)O; Ac3c = NC1(C(=O)O)CC1

Solved entries:
* CC[C@H](C)[C@H](NC(C)=O)C(=O)N[C@H](C(=O)N[C@@H](Cc1ccccc1)C(=O)N[C@]1(C)CCCCCCC=CCCC[C@@](C)(C(=O)N[C@@H](C)C(=O)N[C@@H](Cc2c[nH]cn2)C(=O)N[C@@H](Cc2ccccc2)C(=O)N[C@@H](C)C(N)=O)NC(=O)[C@H](CC(C)C)NC(=O)[C@H](CCC(N)=O)NC(=O)[C@H](C(C)C)NC(=O)[C@H](Cc2c[nH]c3ccccc23)NC(=O)[C@H](Cc2ccc(O)cc2)NC(=O)[C@H](CCC(=O)O)NC1=O)[C@@H](C)O [compound 192] (Ac-ITF[R8]EYWVQL[S5]AHFA-NH2; staple 4-11) | 6.00 to 7.00
* CCCCCCCCCCCCCCCC(=O)N[C@@H](CCC(=O)O)C(=O)N[C@H](C(=O)N[C@@H](Cc1ccccc1)C(=O)N[C@]1(C)CCCCCCC=CCCC[C@@](C)(C(=O)N[C@@H](CO)C(=O)N[C@@H](C)C(=O)N[C@@H](C)C(N)=O)NC(=O)[C@H](CC2CCC2)NC(=O)[C@H](CCC(N)=O)NC(=O)[C@H](C)NC(=O)[C@H](Cc2c[nH]c3ccccc23)NC(=O)[C@H](Cc2ccc(O)cc2)NC(=O)[C@H](CCC(=O)O)NC1=O)[C@@H](C)O [compound 250] (Palmitoyl-ETF[R8]EYWAQ[Cba][S5]SAA-NH2; staple 4-11) | < 6.00
* CCCC[C@H](NC(=O)[C@H](Cc1c[nH]c2ccccc12)NC(=O)[C@H](C)NC(=O)[C@]1(C)CCCC=CCCCCCC[C@@](C)(NC(=O)[C@H](Cc2ccccc2)NC(=O)[C@@H](NC(=O)[C@H](CC(C)C)NC(C)=O)[C@@H](C)O)C(=O)N[C@@H](CCC(=O)O)C(=O)N[C@@H](Cc2ccc(O)cc2)C(=O)N[C@@H](Cc2c[nH]c3ccccc23)C(=O)N[C@@H](C)C(=O)N[C@@H](CCC(N)=O)C(=O)N[C@@H](CC(C)C)C(=O)N1)C(=O)N[C@H](C)C(N)=O [compound 277] (Ac-LTF[R8]EYWAQL[S5]AW[Nle][dA]-NH2; staple 4-11) | 7.00 to 8.00
* CC(=O)N[C@@H](Cc1ccccc1)C(=O)N[C@]1(C)CCCCCCC=CCCC[C@@](C)(C(=O)N[C@@H](C)C(=O)N[C@@H](C)C(=O)N[C@@H](CC2CCCCC2)C(N)=O)NC(=O)[C@H](CC(C)C)NC(=O)C2(CC2)NC(=O)[C@H](CCC(=O)O)NC(=O)[C@H](Cc2c[nH]c3ccccc23)NC(=O)[C@H](Cc2ccc(O)cc2)NC(=O)[C@H](C)NC1=O [compound 21] (Ac-F[R8]AYWE[Ac3c]L[S5]AA[Cha]-NH2; staple 2-9) | 7.00 to 8.00
* CC(=O)N[C@@H](CCC(=O)O)C(=O)N[C@H](C(=O)N[C@@H](Cc1ccccc1)C(=O)N[C@]1(C)CCCCCCC=CCCC[C@@](C)(C(=O)N[C@@H](CO)C(=O)N[C@H](C(=O)N[C@@H](C)C(N)=O)C(C)C)NC(=O)[C@H](CC(C)C)NC(=O)[C@H](CCC(N)=O)NC(=O)[C@H](C)NC(=O)[C@H](Cc2c[nH]c3ccccc23)NC(=O)[C@H](Cc2ccc(O)cc2)NC(=O)[C@H](C(C)C)NC1=O)[C@@H](C)O [compound 126] (Ac-ETF[R8]VYWAQL[S5]SVA-NH2; staple 4-11) | 6.00 to 7.00

Endpoint output: pIC50 of CCCC[C@H](NC(=O)[C@H](Cc1c[nH]cn1)NC(=O)[C@H](Cc1c[nH]cn1)NC(=O)[C@]1(C)CCCC=CCCCCCC[C@@](C)(NC(=O)[C@H](Cc2ccccc2)NC(C)=O)C(=O)N[C@@H](C)C(=O)N[C@@H](Cc2ccc(O)cc2)C(=O)N[C@@H](Cc2c[nH]c3ccccc23)C(=O)N[C@@H](C)C(=O)N[C@@H](CCC(N)=O)C(=O)N[C@@H](CC(C)C)C(=O)N1)C(=O)N[C@@H](CC(C)C)C(N)=O [compound 38] (Ac-F[R8]AYWAQL[S5]HH[Nle]L-NH2; staple 2-9) . Value?
6.00 to 7.00

// repeat for CC[C@H](C)[C@H](NC(=O)[C@H](C)NC(=O)[C@H](C)NC(=O)[C@]1(C)CCCC=CCCCCCC[C@@](C)(NC(=O)[C@H](Cc2ccccc2)NC(=O)[C@@H](NC(=O)[C@H](CCC(=O)O)NC(C)=O)[C@@H](C)O)C(=O)N[C@@H](CCC(=O)O)C(=O)N[C@@H](Cc2c[nH]cn2)C(=O)N[C@@H](Cc2c[nH]c3ccccc23)C(=O)N[C@@H](C)C(=O)N[C@@H](CCC(N)=O)C(=O)N[C@@H](CC(C)C)C(=O)N1)C(=O)N[C@H](C)C(N)=O (single isomer, unassigned) and report
6.00 to 7.00

What would you report for CC[C@H](C)[C@H](NC(=O)[C@H](C)NC(=O)[C@H](C)NC(=O)[C@]1(C)CCCC=CCCCCCC[C@@](C)(NC(=O)[C@H](Cc2ccccc2)NC(=O)[C@@H](NC(=O)[C@H](CC(C)C)NC(=O)CN(C)C)[C@@H](C)O)C(=O)N[C@@H](CCC(=O)O)C(=O)N[C@@H](Cc2ccc(C(=O)O)cc2)C(=O)N[C@@H](Cc2c[nH]c3ccccc23)C(=O)N[C@@H](C)C(=O)N[C@@H](CCC(N)=O)C(=O)N[C@@H](CC2CCC2)C(=O)N1)C(=O)N[C@H](C)C(N)=O (single isomer, unassigned) ?
> 8.00

meta.source: patent US8927500B2
